Cited source for all entries: BigSolDB 2.1

conditions: in water, 343.25 K
quantityMeasured: solubility (mole fraction)
Form field (numeric): enter value without unit.

**Q:** For the compound O=P(c1ccccc1)(c1ccccc1)c1cc(O)ccc1O , what solubility (mole fraction) is on record?
**A:** 0.00017

----------
settings: in 2-ethoxyethanol, 343.15 K
quantityMeasured: solubility (mole fraction)

**Q:** Given the entry O=P(c1ccccc1)(c1ccccc1)c1cc(O)ccc1O , report its measured solubility (mole fraction).
**A:** 0.0236

----------
conditions: in ethanol, 318.47 K
quantityMeasured: solubility (mole fraction)
Just the number, please, no unit after it.

**Q:** Bench note: what solubility (mole fraction) did O=P(c1ccccc1)(c1ccccc1)c1cc(O)ccc1O show?
**A:** 0.00979
